Documented IC50 across a set of compounds
System: OPM2
method-summary: Anti-proliferative effect (CellTiter-Glo, 72 h), OPM2
Format: cell-based
experimental-setup: Homo sapiens, OPM-2, 72 h, OPM2 cells, median, read-out: IC50 antiproliferation assay OPM2 [M] (median)
attribute-measured: IC50

compound | assayed-target | attribute-measured | result
COCCn1nc2c(c1CN1CCOCC1)-c1cccc3c(CCCOc4cccc5ccccc45)c(C(=O)O)n(c13)CCCN(C)C2 (racemic) [Example 056] | OPM2 | IC50 | > 3.3e-05 M
COCc1nn(C)c2c1-c1cccc3c(CCCOc4cccc5ccccc45)c(C(=O)O)n(c13)CCCN(C)C2 (single isomer, unassigned; enantiomer 1) | OPM2 | IC50 | 1.58e-05 M
CN1CCCn2c(C(=O)O)c(CCCOc3cccc4ccccc34)c3cccc(c32)-c2c(COc3ccccc3)nn(C)c2C1 (racemic) [Example 1-81] | OPM2 | IC50 | > 3.3e-05 M
COC1(c2ccc(OCc3nn(C)c4c3-c3cccc5c(CCCOc6cccc7ccccc67)c(C(=O)O)n(c35)CC=CCOC4)cc2)CCOCC1 (racemic) | OPM2 | IC50 | 2.15e-05 M
COCc1nn(C)c2c1-c1cccc3c(CCCOc4cccc5ccccc45)c(C(=O)O)n(c13)CCCCOC2 (single isomer, unassigned; enantiomer 1) | OPM2 | IC50 | > 3.3e-05 M
CCc1c2c(nn1C)COCCCCn1c(C(=O)O)c(CCCOc3cccc4ccccc34)c3cccc-2c31 (racemic) [Example 147] | OPM2 | IC50 | 1.05e-05 M
Cc1nn(C)c2c1-c1cccc3c(CCCOc4cccc5ccccc45)c(C(=O)O)n(c13)CCCCN2Cc1ccccc1 | OPM2 | IC50 | > 3.3e-05 M
CN1CCCn2c(C(=O)O)c(CCCOc3cccc4ccccc34)c3cccc(c32)-c2c(COc3ccc(N4CCOCC4)cc3)nn(C)c2C1 (single isomer, unassigned) | OPM2 | IC50 | > 3.3e-05 M
CCn1nc2c(c1C1CC1)-c1cccc3c(CCCOc4cccc5ccccc45)c(C(=O)O)n(c13)CCCCOC2 (racemic) | OPM2 | IC50 | 1.44e-05 M
Cc1ccc2cccc(OCCCc3c(C(=O)O)n4c5c(cccc35)-c3c(C)nn(C)c3COCCCC4)c2c1 (racemic) | OPM2 | IC50 | 2.17e-05 M
Cn1ncc2c1COCCCCn1c(C(=O)O)c(CCCOc3cccc4ccccc34)c3cccc-2c31 (racemic) | OPM2 | IC50 | > 3.3e-05 M
Cc1nn(C)c2c1-c1cccc3c(CCCOc4cccc5ccccc45)c(C(=O)O)n(c13)CCCCN2 | OPM2 | IC50 | > 3.3e-05 M
Cn1nc(CN2CCOCC2)c2c1COCCCn1c(C(=O)O)c(CCCOc3cccc4ccccc34)c3cccc-2c31 (racemic) | OPM2 | IC50 | > 3.3e-05 M

###

assayed-target: MCL-1 (Homo sapiens, UniProt Q07820)
Sequence (Q07820 whole entry): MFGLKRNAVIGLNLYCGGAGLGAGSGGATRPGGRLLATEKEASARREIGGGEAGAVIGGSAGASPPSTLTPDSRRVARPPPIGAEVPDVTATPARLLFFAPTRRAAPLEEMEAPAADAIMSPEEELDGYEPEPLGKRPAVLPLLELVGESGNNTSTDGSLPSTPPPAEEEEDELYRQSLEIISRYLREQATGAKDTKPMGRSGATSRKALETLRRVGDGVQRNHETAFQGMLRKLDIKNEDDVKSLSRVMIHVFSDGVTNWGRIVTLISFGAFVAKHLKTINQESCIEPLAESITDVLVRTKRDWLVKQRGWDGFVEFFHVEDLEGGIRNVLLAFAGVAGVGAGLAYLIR
method-summary: Protein-protein interaction assay MCL-1/Noxa BH3 peptide (MCL-1 assay), TR-FRET
Format: binding
experimental-setup: MBP-MCL-1 / Noxa BH3-derived peptide, median
Please respond with satisfied when measured IC50 is strictly beneath 10 nM, and with not satisfied in all other cases.

molecule | assayed-target | cat
CCc1c2c(nn1CCN1CCOCC1)COCCCCn1c(C(=O)O)c(CCCOc3cccc4ccccc34)c3ccc(C)c-2c31 (single isomer, unassigned; enantiomer 2) [Example 206] | MCL-1 (Homo sapiens, UniProt Q07820) | not satisfied
CCc1nn(C)c2c1-c1cccc3c(CCCOc4cccc5cc(F)ccc45)c(C(=O)O)n(c13)CCCCOC2 (racemic) [Example 287] | MCL-1 (Homo sapiens, UniProt Q07820) | satisfied
Cc1nn(CC(F)(F)F)c2c1-c1cccc3c(CCCOc4cccc5ccccc45)c(C(=O)O)n(c13)CCCCOC2 (racemic) [Example 109] | MCL-1 (Homo sapiens, UniProt Q07820) | not satisfied
Cc1c2c(nn1C)CNCCCCn1c(C(=O)O)c(CCCOc3cccc4ccccc34)c3cccc-2c31 (racemic) [Example 356] | MCL-1 (Homo sapiens, UniProt Q07820) | satisfied
COCCn1nc2c(c1CN1CCOCC1)-c1cccc3c(CCCOc4cccc5ccccc45)c(C(=O)O)n(c13)CCCN(C)C2 (single isomer, unassigned; enantiomer 1) [Example 057] | MCL-1 (Homo sapiens, UniProt Q07820) | not satisfied
Cc1nn(C)c2c1-c1cccc3c(CCCOc4cccc5ccccc45)c(C(=O)O)n(c13)CCCCN(C)C2 (single isomer, unassigned) [Example 239] | MCL-1 (Homo sapiens, UniProt Q07820) | not satisfied

###

Tested on: MV-4-11
method-summary: Anti-proliferative effect (CellTiter-Glo, 72 h), MV-4-11
Type: cell-based
experimental-setup: MV-4-11 cells, median, read-out: IC50 antiproliferation assay MV-4-11 [M] (median)
attribute-measured: IC50 (M)

compound | attribute-measured | measured-number
Cn1nc(COCc2ccc(C#N)cc2)c2c1COCCCCn1c(C(=O)O)c(CCCOc3cccc4ccccc34)c3cccc-2c31 (single isomer, unassigned; enantiomer 1) [Example 347] | IC50 | 1.2e-05
Cc1c2c(nn1CCN1CCOCC1)COCCCCn1c(C(=O)O)c(CCCOc3cccc4cc(F)ccc34)c3cccc-2c31 (single isomer, unassigned) [Example 285] | IC50 | 3.61e-06
O=C(O)c1c(CCCOc2cccc3ccccc23)c2cccc3c2n1CCCCOCc1nn2c(c1-3)CCCC2 (single isomer, unassigned) | IC50 | 1.31e-05

###

Tested on: A2780
method-summary: Anti-proliferative effect (CellTiter-Glo, 72 h), A2780
Format: cell-based
experimental-setup: A2780 cells, median, read-out: IC50 antiproliferation assay A2780 [M] (median)
attribute-measured: IC50 (M)

compound | operator-symbol | measured-number
Cn1nc(COc2ccc(N3CCN(S(=O)(=O)C4CC4)CC3)cc2)c2c1COCCCCn1c(C(=O)O)c(CCCOc3cccc4ccccc34)c3cccc-2c31 (single isomer, unassigned; enantiomer 1) [Example 1-12] | > | 3.3e-05
CCOCc1nn(C)c2c1-c1cccc3c(CCCOc4cccc5ccccc45)c(C(=O)O)n(c13)CCCCOC2 (single isomer, unassigned; enantiomer 2) | = | 2.67e-05
CCc1nn(C)c2c1-c1c(C)ccc3c(C(C)CCOc4cccc5cc(F)ccc45)c(C(=O)O)n(c13)CCCCOC2 (single isomer, unassigned) [Example 262] | = | 7.54e-06

###

Documented IC50 across a set of compounds
System: OPM2
method-summary: Anti-proliferative effect (CellTiter-Glo, 72 h), OPM2
Type: cell-based
experimental-setup: Homo sapiens, OPM-2, 72 h, OPM2 cells, median, read-out: IC50 antiproliferation assay OPM2 [M] (median)

compound | IC50 (M)
Cn1nc(COc2ccc(N3CCN(C(=O)C4CC4)CC3)cc2)c2c1COCCCCn1c(C(=O)O)c(CCCOc3cccc4ccccc34)c3cccc-2c31 (racemic) | 3.61e-06
COCCn1nc2c(c1C)-c1cccc3c(CCCOc4cccc5ccccc45)c(C(=O)O)n(c13)C/C=C\COC2 (racemic) | 1.3e-05
Cc1nn(C)c2c1-c1cccc3c(CCCOc4ccc(F)c5ccccc45)c(C(=O)O)n(c13)CCCCOC2 (single isomer, unassigned; enantiomer 2) [Example 023] | 6.79e-06
COCC(=O)N1CCN(c2ccc(OCc3nn(C)c4c3-c3cccc5c(CCCOc6cccc7ccccc67)c(C(=O)O)n(c35)CCCCOC4)cc2)CC1 (racemic) | 8.75e-06
CN1CCCn2c(C(=O)O)c(CCCOc3cccc4ccccc34)c3cccc(c32)-c2c(CN3CCOCC3)nn(C)c2C1 (single isomer, unassigned; enantiomer 1) [Example 1-43] | 1.81e-05

###

Tested on: A2780
method-summary: Anti-proliferative effect (CellTiter-Glo, 72 h), A2780
Type: cell-based
experimental-setup: A2780 cells, median, read-out: IC50 antiproliferation assay A2780 [M] (median)
attribute-measured: IC50

compound | assayed-target | result
CCN(CC)S(=O)(=O)N1CCN(c2ccc(OCc3nn(C)c4c3-c3cccc5c(CCCOc6cccc7ccccc67)c(C(=O)O)n(c35)CCCCOC4)cc2)CC1 (single isomer, unassigned; enantiomer 2) [Example 1-5] | A2780 | 6.24e-06 M
CCc1c2c(nn1CCN1CCOCC1)COCCCCn1c(C(=O)O)c(CCCOc3cccc4ccccc34)c3cccc-2c31 (single isomer, unassigned; enantiomer 2) | A2780 | 2.21e-05 M
COCc1nn(C)c2c1-c1cccc3c(CCCOc4cccc5ccccc45)c(C(=O)O)n(c13)CCCCN(C)C2 (racemic) [Example 183] | A2780 | 2.39e-05 M
CCc1c2c(nn1C)CN(C)CCCn1c(C(=O)O)c(CCCOc3cccc4ccccc34)c3ccc(C)c-2c31 (single isomer, unassigned; enantiomer 2) | A2780 | 1.37e-05 M
Cn1nc(CN2CCCC2)c2c1COCCCCn1c(C(=O)O)c(CCCOc3cccc4ccccc34)c3cccc-2c31 (single isomer, unassigned; enantiomer 2) | A2780 | > 3.3e-05 M
